The entries below come with measured pKd values attached.
- Measured on: T1, human GITR-Fc (Enzo Life Sciences, ALX-522-061-C050) (human, UniProt Q9Y5U5 26-162)
- T1 construct: Bought protein; not shown: Fc part of the bought fusion protein; not described
- T1 sequence: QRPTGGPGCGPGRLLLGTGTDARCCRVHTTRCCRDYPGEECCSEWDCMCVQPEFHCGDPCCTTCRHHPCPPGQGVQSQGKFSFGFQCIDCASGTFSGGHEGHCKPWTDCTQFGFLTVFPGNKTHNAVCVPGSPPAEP
- Method summary: ProteOn XPR36; human GITR-Fc amine-coupled on GLC chip, Nanobody injected at 6 concentrations
- Experimental: Affinity was determined on the Proteon XPR36. Briefly, after human GITR-Fc (Enzo Life Sciences, ALX-522-061-C050) was immobilized on a GLC chip via amine coupling, a range of 6 concentrations of different monovalent Nanobodies (representing each family) were injected. The Ko values were determined by using the calculated association rate and dissociation rate constants (Table 1) (ProteOn Manager 3.1.0, Version 3.1.0.6 (2011)).
pKd: −log10 of the molar value.

Binder	pKd
A0231052A08 (VHH, Monovalent Nanobody expressed in E. coli with a triple Flag, HIS6 tag; also called A0231PMP052A08; PA0231PMP052A08.1; not shown: C-terminal triple FLAG and HIS6 tag) VHH: EVQLVESGGGLVQAGGSLRLSCVASGSISSITAMGWHRQAPGAQREGVAVISRSGATMLVDSVKGRFTIVQDNAKNTVYLQMNSLKVEDTAVYGCSAITQGRTYWGQGTLVTVSS	7.62
A0231034A08 (VHH, Monovalent Nanobody expressed in E. coli with a triple Flag, HIS6 tag; also called A0231PMP034A08; PA0231PMP034A08.1; not shown: C-terminal triple FLAG and HIS6 tag) VHH: EVQLVESGGDLVQPGGSLRLSCAASGSVFSINDMGWFRQAPGKQRELVADIISRGVTNYADSVKGRFTISGDPAKNTVYLQMNSLKPEDTAVYYCNAHISTGWGRPHNNYWGQGTQVTVSS	8.60
A0231004B01 (VHH, Monovalent Nanobody expressed in E. coli with a triple Flag, HIS6 tag; also called A0231PMP004B01; PA0231PMP004B01.1; not shown: C-terminal triple FLAG and HIS6 tag) VHH: EVQLVESGGGLVQPGGSLRLSCAASGSIFSIDSMGWYRQAPGKQRELVAAITSSTNYADSVKGRFTISRDNAKNTVYLQMNSLKPEDTAVYYCNLEGQAGWGTALINYWGKGTLVTVSS	8.59
A0231005A03 (VHH, Monovalent Nanobody expressed in E. coli with a triple Flag, HIS6 tag; also called A0231PMP005A03; PA0231PMP005A03.1; not shown: C-terminal triple FLAG and HIS6 tag) VHH: EVQLVESGGGLVQPGGSLRLSCAASETIFSIDSMAWYRQAPGKQRELVAAITGGGSPNYADSVKGRFTISSDVAKRTVYLQMNSLKPEDTAVYYCNAEGQAGWGTALMDYWGKGTLVTVSS	8.47

Data provenance is patent US20220411521A1.
